- Tested on: Plasmodium falciparum
- Assay Name: GSK_TCMDC: Inhibition of Plasmodium falciparum 3D7 in whole erythrocytes, using parasite LDH activity as an index of growth.
- Assay type: functional, organism-based
- Protocol Conditions: Plasmodium falciparum, 3D7
In this scheme, each record receives a class according to its XC50; the ranges are lower bin = under 700 nM, middle bin = from 700 nM up to 900 nM, upper bin = 900 nM and over

Example cases with answers are listed next.
[
  {
    "Molecule": "O=S(=O)(c1cc(Cl)sc1Cl)N(CCC(O)(C(F)(F)F)C(F)(F)F)Cc1cccc(O)c1",
    "Cat": "middle bin"
  },
  {
    "Molecule": "OC1(c2ccccc2)c2cc(Cl)ccc2OC1c1nc2c(Cl)ccc(Cl)c2o1 (stereo not drawn)",
    "Cat": "lower bin"
  }
]

Determine which band this molecule sits in: COc1ccccc1C1CC(c2ccc(Br)cc2)=NN1C(=O)c1ccccc1 (stereo not drawn)
upper bin

Form: Item = `COCCN(CCOC)c1ncc(-c2ccsc2)c(-c2nc(C)c(C)s2)n1` ; Class = ?
middle bin

// bin(item) where item = `COc1ccc2c(c1)ncn2-c1cc(OCc2ccncc2Br)c(C(N)=O)s1`
lower bin

Just checking, what class would you give CC(C)(C)C1CCC(CC2=C(C(=O)O)c3ccccc3C2=O)CC1 (stereo not drawn) here?
upper bin

Textbook exercise: identify the category of the molecule given here, `C=CCc1cc(Cc2cnc(N)nc2N)c2ccc(C)nc2c1O` , according to its measured value.
upper bin

====

- Tested on: Plasmodium falciparum
- Assay Name: GSK_TCMDC: Inhibition of Plasmodium falciparum 3D7 in whole erythrocytes, using parasite LDH activity as an index of growth.
- Type: functional, organism-based
- Protocol Conditions: Plasmodium falciparum, 3D7
# if measured XC50 < 0.2 µM: t  # else: f

These recorded examples may help you get a feel for the data.
[
  {
    "Compound String": "CN(C)CCOc1cccc(-c2cnc(N)c(-c3nc4cc(S(C)(=O)=O)ccc4[nH]3)c2)c1",
    "Cat": "f"
  },
  {
    "Compound String": "COc1ccc2nccc([C@@H](O)CN3CCC(NCc4cc5cc(OC(F)(F)F)ccc5[nH]4)CC3)c2c1",
    "Cat": "t"
  },
  {
    "Compound String": "CCOC(=O)c1cnc2cc(N3CCCC3)c(Cl)cc2c1OCC",
    "Cat": "t"
  },
  {
    "Compound String": "COc1ccc(Nc2nc(N/N=C/c3ccc(O)cc3)nc(Nc3ccc([N+](=O)[O-])cc3)n2)cc1",
    "Cat": "f"
  },
  {
    "Compound String": "N=C1SC(=Cc2cn[nH]c2-c2ccc(F)cc2)C(=O)N1c1nccs1",
    "Cat": "f"
  }
]

Okay, now this compound:
Record `CC1(C)CC(NCCCCCCCOc2ccc(OCc3ccccc3)cc2)CC(C)(C)N1` : is its XC50 strictly below 0.2 µM?
f

====

- Test system: Plasmodium falciparum
- Assay Name: GSK_TCMDC: Inhibition of Plasmodium falciparum 3D7 in whole erythrocytes, using parasite LDH activity as an index of growth.
- Assay type: functional, organism-based
- Protocol Conditions: Plasmodium falciparum, 3D7
Recorded log10 XC50 by entry
The base-10 logarithm of XC50, taken with XC50 in nM, is what appears here.

Please list log10 XC50 recorded for the compound `CCN(CC)CCN(Cc1ccc(-c2ccc(C(F)(F)F)cc2)cc1)C(=O)Cn1cc(CCCc2cccc(F)c2F)c(=O)c2ccccc21`
3.03

Return reported log10 XC50. Input compound: `Cc1ccccc1Nc1nc(NCCCO)c2ccccc2n1`
2.61

Check the records and state log10 XC50 for `O=C(c1csc(-c2cccnc2)n1)N1CCc2cc3nccc(N4CCN5CCC[C@H]5C4)c3cc21`
2.84

Entry `CC1(C)NC(N)=NC(=N)N1OCCCOc1c(Cl)cc(Cl)cc1Cl` needs its log10 XC50 filled in; supply it.
0.47

Return reported log10 XC50. Input compound: `COc1ccccc1-n1c(SCC(=O)Nc2ccccc2F)nc2cccnc21`
2.62

Kindly indicate its recorded log10 XC50. Item: COc1cc2c(cc1COc1ccccc1)CCN1Cc3cc(OC)c(OC)cc3CC21 (stereo not given)
2.18

Consider the compound `COc1ccc(Nc2c3ccc(Cl)cc3nc3ccc(OC)cc23)cc1` and give its recorded log10 XC50.
2.64

====

- Tested on: Plasmodium falciparum
- Assay Name: GSK_TCMDC: Inhibition of Plasmodium falciparum 3D7 in whole erythrocytes, using parasite LDH activity as an index of growth.
- Assay type: functional, organism-based
- Protocol Conditions: Plasmodium falciparum, 3D7
// reported XC50 for each item listed
Field: numeric (nM). Do not append units.

[
  {
    "Compound": "COc1ccc(-c2ccc(NC(=O)c3ccc(C#N)cc3)cc2)cc1CN(C)CCN(C)C",
    "Measured On": "Plasmodium falciparum",
    "XC50 [nM]": 663
  }
]

Give XC50 for the following compound: `COc1ccc(CNCC(C)(C)c2nc(-c3ccc(Cl)c(O)c3)c(-c3ccncc3)[nH]2)cc1`
357

Output XC50 of COc1ccc2c(c1)Sc1ccccc1C(N1CCN(CCO)CC1)C2 (stereo not drawn)
1390

====

- Tested on: Plasmodium falciparum
- Assay Name: GSK_TCMDC: Inhibition of Plasmodium falciparum 3D7 in whole erythrocytes, using parasite LDH activity as an index of growth.
- Format: functional, organism-based
- Protocol Conditions: Plasmodium falciparum, 3D7
Recorded Endpoint: XC50 (nM)
Response body: numeric value in nM, unit text excluded.

[
  {
    "Compound": "COc1ccc(CN2CCC(CNCc3cccc(-c4ccccc4)c3)CC2)cc1",
    "XC50, nM": 236
  }
]

Return XC50 (reported value) for this compound: NC1CCCN(Cc2cccc(-c3ccc(-c4nc5ccccc5[nH]4)cc3)c2)C1 (centres undefined)
722

Specify reported XC50 for the compound shown: `CCOC(=O)c1c(NC(=O)c2ccccc2)sc2c(O)c(CN(CC)CC)ccc12`
969

Please indicate XC50 recorded for `Cc1cccc2nc(-c3cccc(-c4cccc(C(=O)NCc5nccn5C)c4)c3)[nH]c12`
528

Fill in XC50 for record `Cc1ccc(C(=O)Nc2ccc(-c3nc4ccccc4[nH]3)cc2)cc1S(=O)(=O)N1CCOCC1`
1210

Answer with reported XC50 of CC(CCCCC(=O)Nc1ccc(C(F)(F)F)cc1)NCC(O)c1cccc(Cl)c1 (centres undefined)
282

====

- Test system: Plasmodium falciparum
- Assay Name: GSK_TCMDC: Inhibition of Plasmodium falciparum 3D7 in whole erythrocytes, using parasite LDH activity as an index of growth.
- Type: functional, organism-based
- Protocol Conditions: Plasmodium falciparum, 3D7
hey, just use yes (1) if measured XC50 is less than 300 nM, otherwise no (0)

Consider the following illustrative entries.
[
  {
    "Molecule": "COc1cccc(C(=O)NC(c2ccc(Cl)cc2Cl)c2cc(Cl)c3cccnc3c2O)c1 (stereo not given)",
    "Cat": "no (0)"
  },
  {
    "Molecule": "Cc1ccc2nc(C)n(C3CCN(C(=O)Cc4ccccc4C)CC3)c2c1",
    "Cat": "yes (1)"
  },
  {
    "Molecule": "O=C(Nc1cccc(CN2CCCN(Cc3ccc4c(c3)OCO4)CC2)c1)c1ccc(-c2ccccc2)cc1",
    "Cat": "no (0)"
  }
]

I'd appreciate it if you could check whether `CNC(=O)CNC(=O)COc1cccc2ccccc12` has XC50 smaller than 300 nM.
yes (1)

====

- Test system: Plasmodium falciparum
- Assay Name: GSK_TCMDC: Inhibition of Plasmodium falciparum 3D7 in whole erythrocytes, using parasite LDH activity as an index of growth.
- Assay type: functional, organism-based
- Protocol Conditions: Plasmodium falciparum, 3D7
Recorded Endpoint: XC50 (nM)
Record the value in nM, omitting the unit from your answer.

Would you please look over these solved cases?
[
  {
    "Molecule": "O=C(Cc1ccc(-n2cnnn2)cc1)N(Cc1cncn1Cc1cccc(C(F)(F)F)c1)CC1CC1",
    "Measured On": "Plasmodium falciparum",
    "XC50 / nM": 962
  },
  {
    "Molecule": "Nc1c2c(nc3ccc(C(=O)Nc4cc(I)c(O)c(I)c4)cc13)CCCC2",
    "Measured On": "Plasmodium falciparum",
    "XC50 / nM": 1010
  },
  {
    "Molecule": "c1cc(-c2ccc(CNCCCn3ccnc3)cc2)cc(-c2nc3ccccc3[nH]2)c1",
    "Measured On": "Plasmodium falciparum",
    "XC50 / nM": 113
  }
]

Answer with the recorded XC50 of `O=C(NCc1ccc(S(=O)(=O)N2CCC(CN3CCC(c4c[nH]c5ccccc45)CC3)CC2)s1)c1ccccc1` only.
843

Look up and report measured XC50 for this entry: COc1ccc(C2CC(=O)C3=C(C2)NC(C)=C(C(=O)OC2CCCC2)C3c2cccc(O)c2)cc1OC (stereo not given)
216
